# Tested on: SETVI (Foxtail, Green)
# Assay Text: Preemergence herbicidal evaluation
# Assay type: in vivo, Setaria viridis
# Test Parameters: rate 0.2500 kg/ha; rated 4-5 weeks after treatment
Measured Preemergence herbicidal rating SETVI by item
Reported Metric: Preemergence herbicidal rating SETVI

Compound	Endpoint Result
C#CCOC(=O)CC1SC(=Nc2cc(-n3c(=O)cc(C(F)(F)F)n(C)c3=O)c(F)cc2Cl)N(CC=C)C1=O (stereo not drawn)	7.0
CCOC(=O)CN1C(=O)C(CCO)S/C1=N/c1cc(-n2c(=O)cc(C(F)(F)F)n(C)c2=O)c(F)cc1Cl (stereo not drawn)	5.0
CN1C(=O)C(CC(=O)O)SC1=Nc1cc(-n2c(=O)cc(C(F)(F)F)n(C)c2=O)c(F)cc1Cl (stereo not drawn)	9.0
CCOC(=O)CN1C(=O)C(CC(=O)O)SC1=Nc1cc(-n2c(=O)cc(C(F)(F)F)n(C)c2=O)c(Cl)cc1Cl (stereo not drawn)	9.0
CC(C)C[C@@H](C(=O)O)N1C(=O)CSC1=Nc1cc(-n2c(=O)cc(C(F)(F)F)n(C)c2=O)c(F)cc1Cl	9.0
CC(C)COC(=O)CN1C(=O)CSC1=Nc1cc(-n2c(=O)cc(C(F)(F)F)n(C)c2=O)c(F)cc1Cl	9.0

* * *

# System: SAGPY (Arrowhead (Pygmaea))
# Assay Text: Preemergence weed control under flooded paddy conditions
# Format: in vivo, Sagittaria pygmaea
# Test Parameters: 0.2500 kg/ha, rated 3-4 weeks after treatment
# Protocol: Results of herbicide evaluation are expressed on a rating scale (0-9). The scale is based upon a visual observation of plant stand, vigor, malformation, size, chlorosis and overall plant appearance as compared with a control. Preemergence herbicidal activity under flooded paddy conditions is determined as follows: plant seeds or propagating organs are planted in the top 0.5 cm of silt loam soil in 32 oz. plastic containers with a diameter of 10.5 cm and no drainage holes. […]
# binarize herbicidal effect rating, SAGPY: threshold 7 inclusive, high side Met, low side Not met

Smiles Data	Assay Target	Discrete Label
Cc1cc(C)cc(CN2C(=O)CSC2=Nc2cc(-n3c(=O)cc(C(F)(F)F)n(C)c3=O)c(F)cc2Cl)c1	SAGPY (Arrowhead (Pygmaea))	Not met
Cn1c(C(F)(F)F)cc(=O)n(-c2cc(N=C3SCC(=O)N3Cc3cccnc3)c(Cl)cc2F)c1=O	SAGPY (Arrowhead (Pygmaea))	Not met
Cn1c(C(F)(F)F)cc(=O)n(-c2cc(N=C3SCC(=O)N3Cc3ccncc3)c(Cl)cc2F)c1=O	SAGPY (Arrowhead (Pygmaea))	Not met
Cn1c(C(F)(F)F)cc(=O)n(-c2cc(N=C3SCC(=O)N3CC(=O)OC3CCCC3)c(Cl)cc2F)c1=O	SAGPY (Arrowhead (Pygmaea))	Met

* * *

# Tested on: ECHCG (Barnyardgrass)
# Assay Text: Postemergence herbicidal evaluation
# Type: in vivo, Echinochloa crus-galli
# Test Parameters: postemergence, rate 0.1250 kg/ha
Reported Metric: ECHCG herbicidal rating

Compound	Endpoint Result
CCOC(=O)CN1C(=O)C(CC(=O)NOC)SC1=Nc1cc(-n2c(=O)cc(C(F)(F)F)n(C)c2=O)c(F)cc1Cl (stereo not shown)	9.0
CCOC(=O)CN1C(=O)C2(CC2)SC1=Nc1cc(-n2c(=O)cc(C(F)(F)F)n(C)c2=O)c(F)cc1Cl	9.0
CCOC(=O)CN1C(=O)C(CC(=O)NO)S/C1=N/c1cc(-n2c(=O)cc(C(F)(F)F)n(C)c2=O)c(F)cc1Cl (stereo not shown)	1.0
CCOC(=O)CN1C(=O)C(CC(=O)O)S/C1=N/c1cc(-n2c(=O)cc(C(F)(F)F)n(C)c2=O)c(F)cc1Cl (stereo not shown)	9.0
